Experiment notes: Inhibition of CXCL8-induced chemotaxis in human polymorphonuclear leukocyte pretreated for 15 mins measured after 4 hrs by cell migration assay
pIC50: −log10 of the molar value.
Observed property: pIC50

>  <Compound>
CC(C(=O)NCCCN(C)C)c1ccccc1Nc1c(Cl)cccc1Cl (stereo unspecified)

>  <pIC50>
7.60

$$$$

P. CC(C(=O)NC(C)(C)C)c1ccccc1Nc1c(Cl)cccc1Cl (stereo unspecified)
Q. CC(C(=O)O)c1ccccc1Nc1c(Cl)cccc1Cl (stereo unspecified)
R. CC(C(=O)NCCO)c1ccccc1Nc1c(Cl)cccc1Cl (stereo unspecified)
Data request: Rank the 3 compounds: largest pIC50 first, smallest last. Output spec: a listing of the labels in the requested order.
Data returned: Q, R, P

====

Experiment notes: Inhibition of wild type CXCR1 transfected in mouse L1.2 cells assessed as inhibition of CXCL8-induced cell migration pretreated for 15 mins measured after 4 hrs
Observed property: pIC50
Please keep in mind that pIC50 is minus log10 of the molar concentration; only the number is needed.

Data request: pIC50 for O=C(O)Cc1ccccc1Nc1c(Cl)cccc1Cl ?
Data returned: 7.92

====

Experiment notes: Inhibition of CXCL8-induced chemotaxis in human polymorphonuclear leukocyte pretreated for 15 mins measured after 4 hrs by cell migration assay
Observed property: IC50 (nM)

>  <Compound>
CS(=O)(=O)NC(=O)Cc1ccccc1Oc1ccccc1F

>  <Output unit>
nM

>  <IC50>
50

$$$$
>  <Compound>
O=C(O)Cc1ccccc1Nc1ccccc1F

>  <Output unit>
nM

>  <IC50>
9

$$$$
>  <Compound>
Cc1ccc(Cl)c(Nc2ccccc2CC(=O)O)c1Cl

>  <Output unit>
nM

>  <IC50>
500

$$$$
>  <Compound>
O=C(O)Cc1ccccc1Oc1ccccc1Cl

>  <Output unit>
nM

>  <IC50>
500

$$$$

P. O=C(O)Cc1ccccc1Nc1cc(Cl)ccc1Cl
Q. CC(C(N)=O)c1ccccc1Nc1c(Cl)cccc1Cl (centres undefined)
R. O=C(O)Cc1ccccc1Nc1c(Cl)cccc1Cl
S. Cc1cccc(C)c1NC(=O)C(C)c1ccccc1Nc1c(Cl)cccc1Cl (centres undefined)
Data request: Order the records by IC50, with each subsequent value no larger than the one before. Kindly provide the labels arranged according to the requested ordering.
Data returned: S, P, Q, R
(S: 600 nM, P: 25 nM, Q: 12 nM, R: 8 nM)

P. CC(C(=O)NS(C)(=O)=O)c1ccccc1Nc1c(Cl)cccc1Cl (centres undefined)
Q. COc1ccc2c(c1)c(CC(=O)O)c(C)n2C(=O)c1ccc(Cl)cc1
R. Cc1ccc(C(=O)c2ccc(CC(=O)O)n2C)cc1
Data request: Arrange the 3 compounds from largest to smallest IC50. Labels, requested order.
Data returned: R, Q, P
(R: 90 nM, Q: 50 nM, P: 13 nM)

I. O=C(O)Cc1ccccc1Oc1ccccc1F
II. O=C(O)Cc1ccccc1Nc1ccccc1Cl
Data request: Please compare: I and II . Report which one has the smaller IC50 value. Selection: enter the item's label.
Data returned: I
(I: 13 nM, II: 400 nM)
